Where these numbers come from: patent US20260116991A1

# measured target: T1, murine GPC3-his protein (Sino Biological, Cat. No. 50989-M08B) (murine, UniProt Q8CFZ4 25-558)
# T1 construct: Bought protein; also called murine GPC3 protein
# T1 sequence (Q8CFZ4 25-558 limits assumed): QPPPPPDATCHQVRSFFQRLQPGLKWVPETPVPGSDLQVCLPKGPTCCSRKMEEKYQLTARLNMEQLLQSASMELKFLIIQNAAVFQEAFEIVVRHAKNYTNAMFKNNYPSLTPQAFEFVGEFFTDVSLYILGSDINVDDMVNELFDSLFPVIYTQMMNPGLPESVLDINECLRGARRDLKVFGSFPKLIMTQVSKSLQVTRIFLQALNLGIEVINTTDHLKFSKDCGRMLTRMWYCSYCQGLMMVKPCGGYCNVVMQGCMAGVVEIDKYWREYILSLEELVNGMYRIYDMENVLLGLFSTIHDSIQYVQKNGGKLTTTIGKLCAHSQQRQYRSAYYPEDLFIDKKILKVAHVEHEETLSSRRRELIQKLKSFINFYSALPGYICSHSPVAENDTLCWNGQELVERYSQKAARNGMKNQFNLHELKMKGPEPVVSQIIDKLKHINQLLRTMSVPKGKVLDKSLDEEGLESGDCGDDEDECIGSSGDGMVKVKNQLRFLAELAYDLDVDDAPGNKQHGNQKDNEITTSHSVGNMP
# method description: ELISA, coated murine GPC3-His;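 note: antigen coated on plates at 1 µg/mL, test antibody bound for 2 h at 37 °C, detected with HRP-conjugated secondary antibody and TMB substrate after acid stop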

{"binder": "F1.62.9 human-murine chimeric antibody (antibody, human IgG1, kappa, V domains shown) VH: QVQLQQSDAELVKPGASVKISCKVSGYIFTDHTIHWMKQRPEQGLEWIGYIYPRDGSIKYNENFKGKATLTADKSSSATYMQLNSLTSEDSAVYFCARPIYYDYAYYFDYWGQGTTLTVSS VL: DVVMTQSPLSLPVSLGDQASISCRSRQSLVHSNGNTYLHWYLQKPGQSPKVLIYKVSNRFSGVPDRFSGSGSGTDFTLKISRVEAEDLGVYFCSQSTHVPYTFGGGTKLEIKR", "OD450 at 0.001 nM antibody, OD450 nm": 0.04}
{"binder": "F4.21.16 human-murine chimeric antibody (antibody, human IgG1, kappa, V domains shown) VH: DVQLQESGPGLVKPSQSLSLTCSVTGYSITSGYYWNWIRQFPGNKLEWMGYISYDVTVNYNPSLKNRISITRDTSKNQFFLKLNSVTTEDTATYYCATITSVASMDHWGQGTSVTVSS VL: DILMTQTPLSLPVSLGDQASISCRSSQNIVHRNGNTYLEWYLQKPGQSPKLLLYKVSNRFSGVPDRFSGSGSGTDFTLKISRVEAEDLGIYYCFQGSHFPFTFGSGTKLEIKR", "OD450 at 0.001 nM antibody, OD450 nm": 0.05}
{"binder": "F1.21.8 human-murine chimeric antibody (antibody, human IgG1, kappa, V domains shown) VH: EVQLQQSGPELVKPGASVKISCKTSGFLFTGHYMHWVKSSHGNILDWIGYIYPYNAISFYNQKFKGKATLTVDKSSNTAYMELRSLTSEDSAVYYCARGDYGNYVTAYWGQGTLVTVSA VL: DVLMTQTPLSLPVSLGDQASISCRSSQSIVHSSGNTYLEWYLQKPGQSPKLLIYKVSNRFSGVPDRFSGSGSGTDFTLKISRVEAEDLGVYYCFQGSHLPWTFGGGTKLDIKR", "OD450 at 0.001 nM antibody, OD450 nm": 0.07}
